Data provenance: patent US6841661B2

Quick reference: CL4931 (in vitro testing) of the listed items.
tested on: E. faecium CL 4931 (VanA); assay: microbe, parasite or virus in culture; format: cell-based; parameters: unit not given here; details: Tables 7 and 8; unit not given
Test readout: CL4931 (in vitro testing)

{"columns": ["Compound", "Experimental system", "Test readout", "Result"],
 "data": [
  ["CNC(CC(C)C)C(=O)NC1C(=O)NC(CC(N)=O)C(=O)NC2C(=O)NC3C(=O)NC(C(=O)NC(C(=O)O)c4cc(O)cc(O)c4-c4cc3ccc4O)C(O)c3ccc(c(Cl)c3)Oc3cc2cc(c3OC2OC(CNCCCN)C(O)C(O)C2OC2CC(C)(NCc3ccc(OCc4ccc(Cl)c(Cl)c4)cc3)C(O)C(C)O2)Oc2ccc(cc2Cl)C1O (stereo not drawn) [Compound 161]", "E. faecium CL 4931 (VanA)", "CL4931 (in vitro testing)", 16],
  ["CNCC1OC(Oc2c3cc4cc2Oc2ccc(cc2Cl)C(O)C2NC(=O)C(NC(=O)C4NC(=O)C(CC(N)=O)NC(=O)C(NC(=O)C(CC(C)C)NC)C(O)c4ccc(c(Cl)c4)O3)c3ccc(O)c(c3)-c3c(O)cc(O)cc3C(C(=O)O)NC2=O)C(OC2CC(C)(NCc3ccc(OCc4ccc(Cl)c(Cl)c4)cc3)C(O)C(C)O2)C(O)C1O (stereo not drawn) [Compound 147]", "E. faecium CL 4931 (VanA)", "CL4931 (in vitro testing)", 4],
  ["CNC(CC(C)C)C(=O)NC1C(=O)NC(CC(N)=O)C(=O)NC2C(=O)NC3C(=O)NC(C(=O)NC(C(=O)O)c4cc(O)cc(O)c4-c4cc3ccc4O)C(O)c3ccc(c(Cl)c3)Oc3cc2cc(c3OC2OC(CN)C(O)C(O)C2OC2CC(C)(NCc3ccc(OCc4ccc([N+](=O)[O-])cc4)cc3)C(O)C(C)O2)Oc2ccc(cc2Cl)C1O (stereo not drawn) [Compound 178]", "E. faecium CL 4931 (VanA)", "CL4931 (in vitro testing)", 32]
]}
